pIC50: −log10 of the molar value.
Study the reported pIC50 values for ROCK2 (Homo sapiens) given below; they originate from different publications.

{"columns": ["compound", "pIC50"],
 "data": [
  ["O=C(Cc1ccc2ccccc2c1)NC1CC2(C1)CC(c1n[nH]c(=O)c3ccccc13)C2 (stereo not drawn)", "5.68 to 7.00"],
  ["O=C(C1CC2(C1)CC(c1n[nH]c(=O)c3ccccc13)C2)N1Cc2ccccc2C1 (stereo not drawn)", "5.68 to 7.00"],
  ["CCc1nc(N2CC3(CCN(CCO)CC3)N(Cc3cc(F)cc(OC)c3)C2=O)ccc1-c1cn[nH]c1", "> 8.52"],
  ["O=c1n(-c2ccc(-c3cn[nH]c3)cc2)nc(CO)n1Cc1cc(F)cc(F)c1", "7.30 to 8.30"],
  ["Cc1nc(N2CCCC2)sc1C(=O)NC1CC2(C1)CC(c1n[nH]c(=O)c3ccccc13)C2 (stereo not drawn)", "7.82 to 8.29"],
  ["COc1ccc(-n2nnc(C(=O)NC3CC4(C3)CC(c3n[nH]c(=O)c5ccccc35)C4)c2C)cc1 (stereo not drawn)", "8.30 to 8.70"]
]}

Measured pIC50 of O=C(N[C@H]1CC2(C1)C[C@H](c1n[nH]c(=O)c3ccccc31)C2)c1ccn(CC(F)F)n1 (stereo partly drawn) : 5.68 to 7.00

Per the record, O=C(NC1CC2(C1)CC(c1n[nH]c(=O)c3ccccc13)C2)c1cnn2cc(OC(F)F)ccc12 (stereo not drawn) has pIC50 of 8.30 to 8.70

Reported pIC50 ( O=C(NC1CC2(C1)CC(c1n[nH]c(=O)c3ccccc13)C2)c1cnn2cc(OC3CCC(F)(F)CC3)ccc12 (stereo not drawn) ) = 8.70 to 9.70

Noted for [H][C@]1(c2n[nH]c(=O)c3ccccc32)C[C@]2(C[C@@H](NC(=O)c3cn4ccc(-c5cccnc5)cc4n3)C2)C1 (stereo partly drawn) : its pIC50 reads 7.00 to 7.82

In plain terms, `COc1cc(-c2cn[nH]c2)ccc1C(=O)NCc1cccc(C(=O)NC2CCN(C)CC2)c1` has a documented pIC50 of 9.44

Per the records, this compound ( `COc1cc(F)cc([C@@H](CO)NC(=O)N2CCc3cc(-c4c[nH]nc4Cl)c(F)cc32)c1` ) has pIC50 equal to ≥ 7.30

Form: compound = `COc1cccc(CN2C(=O)N(c3ccc(-c4cn[nH]c4)cc3)CC23CCN(C(=O)c2ccc4cc[nH]c4c2)CC3)c1` ; pIC50 = 7.52 to 8.52

Recorded result, `COc1cc(F)cc([C@@H](CO)NC(=O)N2CCc3cc(-c4c[nH]nc4C)c(F)cc32)c1` , pIC50: ≥ 7.30

compound `Cc1coc(-c2cc(-c3nnc(Nc4ccc5[nH]ncc5c4Cl)o3)ccn2)n1` , pIC50 observed: > 6.52

Form: compound = `COc1cc(F)cc(CN2CCN(c3ccc4c(n3)OCc3n[nH]cc3-4)C2=O)c1` ; pIC50 = 7.00 to 8.00

For O=C(NC1CC2(C1)CC(c1n[nH]c(=O)c3ccccc13)C2)c1ccnn1CC1CC1 (stereo not drawn) the compound record lists pIC50 as 7.00 to 7.82

// recorded pIC50 for O=C(O)C1CN(c2ccc(-c3cn[nH]c3)cc2)C(=O)N1Cc1cccc(F)c1 (stereo not drawn) : 5.70 to 6.70
